Hey, just so you know, these numbers are from patent US20120077731A1.

Target: T1, Human soluble IL-6R (human, UniProt P08887 20-358)
T1 construct: Soluble recombinant form; biotinylated in some assays; also called hIL-6R; human IL-6R
T1 sequence (looked up): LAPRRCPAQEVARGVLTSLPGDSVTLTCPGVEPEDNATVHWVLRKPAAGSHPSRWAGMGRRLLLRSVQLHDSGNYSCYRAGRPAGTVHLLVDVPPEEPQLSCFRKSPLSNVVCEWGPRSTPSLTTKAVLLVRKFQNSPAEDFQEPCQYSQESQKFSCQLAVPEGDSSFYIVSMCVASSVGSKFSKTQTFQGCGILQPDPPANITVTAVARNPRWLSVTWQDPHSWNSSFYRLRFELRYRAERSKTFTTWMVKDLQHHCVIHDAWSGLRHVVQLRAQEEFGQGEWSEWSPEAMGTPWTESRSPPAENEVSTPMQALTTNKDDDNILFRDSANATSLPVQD
Experiment: Alphascreen, 100 nM Nanobody, 0.4 nM bio-IL-6R; competitor: reference Fab
measuredProperty: Residual reference-Fab binding to IL-6R (%)
Record the value in %, omitting the unit from your answer.

Use the examples below as a reference point.
# binder, measuredValue
rows = [
    ("IL6R06 (VHH, also called PMP32E2; not shown: C-terminal c-myc and (His)6 tags) VHH: EVQLVESGGGLVQAGGSLRLSCAASGNIFDDNTMGWTWNRQPPGKQRELVAIIATDGSTNYADSVKGRFTISRDNAKNTVYLQMNSLKPEDTAVYYCNLFSLRLGRDYWGQGTQVTVSS", 36),
    ("IL6R08 (VHH, also called PMP34A12; not shown: C-terminal c-myc and (His)6 tags) VHH: EVQLVESGGGLVQPGGSLRLSCVASGFSLDYYVIGWFRQAPGKEREGVSCISSSDGSTYYADSVKGRFTISRDNAKNTVYLQMNSLKPEDTAVYYCAADLLRTPEFCVDSAPYDYWGQGTQVTVSS", 99),
]

Asked: Fill in the blank: the reported Residual reference-Fab binding to IL-6R (%) of IL6R01 (VHH, also called PMP28E11; not shown: C-terminal c-myc and (His)6 tags) VHH: EVQLVESGGGLVQPGGSLRLSCAASGFPLDYYAIGWFRQAPGKEREGVSCISSSDGSTYYADSVKGRFTISRDNAKNTVYLQMNSLKPEDTAVYYCALVHTTAQATGVPQREYEYEWWGQGTQVTVSS is ____.
Given back: 49

Asked: Likewise for IL6R14 (VHH, also called PMP40H5; not shown: C-terminal c-myc and (His)6 tags) VHH: EVQLVESGGGLVQPGGSLRLSCAASGFSLDYYAIGWFRQAPGKEREGVSCMDSSSGTTSTYYSDSVKGRFTISRDDAKNTVYLQMNSLKPEDTAVYYCAADGHLNWGQRYVPCSQISWRGWNDYWGQGTQVTVSS ?
Given back: 96

Asked: Same thing, different binder: IL6R02 (VHH, also called PMP30C11; not shown: C-terminal c-myc and (His)6 tags) VHH: EVQLVESGGGLVQAGGSLRLSCAASGRTFSSYDMGWYRQAPGKEREFVAVISRSGSSTYYADSVKGRFTISRDNAKNTVYLQMNSLKPEDTAIYYCKAEVVAGDYDYWGQGTQVTVSS
Given back: 86

Asked: Moving on to the next binder: IL6R05 (VHH, also called PMP32E10; not shown: C-terminal c-myc and (His)6 tags) VHH: EVQLVESGGGLVQPGGSLRLSCAASGFTFGSYDMSWVRQAPGKGPEWVSAINSGGGSTYYADSVKGRFTISRDNAKNTLYLQMNSLKPEDTAVYYCATDWRYSDYDLPLPPPGDYWGQGTQVTVSS
Given back: 64
